Source of measurements: patent US20220073617A1

For each entry below, report its pKd value.
Target: T1, monovalent hVISTA-ECD (human VISTA extracellular domain with His tail) (human, UniProt Q9H7M9 33-193)
T1 construct: analyte flowed over captured antibody; also called huVISTA-His
T1 sequence (Q9H7M9 other isoform, or with tags, fused parts or gaps limits assumed): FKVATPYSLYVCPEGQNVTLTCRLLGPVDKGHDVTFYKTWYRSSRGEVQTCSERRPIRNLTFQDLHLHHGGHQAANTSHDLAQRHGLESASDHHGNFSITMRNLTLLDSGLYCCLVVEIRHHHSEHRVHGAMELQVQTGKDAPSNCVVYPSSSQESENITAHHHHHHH
Assay: SPR, pH 7.4
Experimental: Binding of several preparations of each of the '029 progeny clones and of the parent '029 antibodies, formatted as IgG1.3 antibodies, to human VISTA at pH 6.0 and 7.4 was measured by Surface plasmon resonance (SPR). SPR analysis was performed to measure koff and KD binding affinity measurements for VISTA Abs at acidic and neutral pHs using a Biacore® T100 instrument (GE Healthcare). […] The affinity constant, KD was calculated as the ratio of rate constants koff/kₒₙ for each VISTA antibody.
Numbers only, as −log10 of the molar value.

Fill in pKd for each of the 2 binders listed.
1. P1-063125 (41F11_HC_Mutant: T28P/Y50W/S55E/Y100E) (antibody, V domains shown, Kabat positions; also called P1-063125-5) VH: QVQLVESGGGLVKPGGSLRLSCAASGFPFSDYYMSWIRQAPGKGLEWVSWISNSGEPIYYADSVKGRFTISRDNAKNSLYLQMNSLRAEDTAVYYCARDLPGWEFDLWGRGTLVTVSS VL: EIVLTQSPATLSLSPGERATLSCRASQSVSSYLAWYQQKPGQAPRLLIYDASNRATGIPARFSASGSGTDFTLTISSLEPEDFAVYYCQQRNNWPRTFGQGTKVEIK
2. P1-065326 (41F11_VH_D31E/Y50W/S55E/L96E/Y100E VK_A64G) (antibody, V domains shown, Kabat positions; also called P1-065326-1) VH: QVQLVESGGGLVKPGGSLRLSCAASGFTFSEYYMSWIRQAPGKGLEWVSWISNSGEPIYYADSVKGRFTISRDNAKNSLYLQMNSLRAEDTAVYYCARDEPGWEFDLWGRGTLVTVSS VL: EIVLTQSPATLSLSPGERATLSCRASQSVSSYLAWYQQKPGQAPRLLIYDASNRATGIPARFSGSGSGTDFTLTISSLEPEDFAVYYCQQRNNWPRTFGQGTKVEIK

[9.57, 9.12]

What does the record list as pKd for P1-064392 (41F11_HC_Mutant: D31E/Y50W/S55E/Y100E 41F11_LC_Mutant: V29D/A64G/Q89E/R91T) (antibody, V domains shown, Kabat positions; also called P1-064392-1) VH: QVQLVESGGGLVKPGGSLRLSCAASGFTFSEYYMSWIRQAPGKGLEWVSWISNSGEPIYYADSVKGRFTISRDNAKNSLYLQMNSLRAEDTAVYYCARDLPGWEFDLWGRGTLVTVSS VL: EIVLTQSPATLSLSPGERATLSCRASQSDSSYLAWYQQKPGQAPRLLIYDASNRATGIPARFSGSGSGTDFTLTISSLEPEDFAVYYCEQTNNWPRTFGQGTKVEIK ?
7.82
